Taken from PubChem BioAssay AID1963830.

Tested on: 922993-354-T-J3-PDC complex spheroid viability
Test: Anticancer human tumor 922993-354-T-J3-PDC patient-derived endometrial carcinoma cell line growth inhibition [POLQ]
Conditions: curve of first compound; second compound 0.316 µM
pIC50: −log10 of the molar value.
observable: pIC50

pIC50 lookup needed for CC1COCCN1c1cc(-c2ccnn2C)c2ccnc(-c3ccn[nH]3)c2n1 (stereo not drawn) + Cc1cccc(N(C)C(=O)C2C(O)CCN2c2nc(C)cc(C(F)(F)F)c2C#N)c1 , thanks. 6.71

Ok, now CCc1cc2c(N3CCc4c(cc(Cn5ccnc5)cc4-c4cn(C)nc4C(F)(F)F)C3=O)ccnc2c(OC)n1 + Nc1ccc(C#CCN(C(=O)Cc2ncc(C(F)(F)F)cc2C(F)(F)F)c2ccc(F)cc2)nn1 < 5.00

Ok, now O=C(c1cc(Cc2n[nH]c(=O)c3ccccc23)ccc1F)N1CCN(C(=O)C2CC2)CC1 + Cc1cccc(N(C)C(=O)C2C(O)CCN2c2nc(C)cc(C(F)(F)F)c2C#N)c1 < 5.00

---

Each entry below carries its reported viability, T/C.
System: 922993-354-T-J3-PDC complex spheroid viability
Assay: Anticancer human tumor 922993-354-T-J3-PDC cell line growth inhibition [POLQ];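 further: spheroids exposed to the agents for one week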;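 on viability, T/C: 100% = DMSO vehicle control wells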
Details: second compound 3.16 µM; first compound 1 µM; stronger effect = lower value

[
  {
    "compound": "C=CC(=O)N1CCN(c2nc(=O)n(-c3c(C)ccnc3C(C)C)c3nc(-c4c(O)cccc4F)c(F)cc23)C(C)C1 (stereo not given) + Nc1ccc(C#CCN(C(=O)Cc2ncc(C(F)(F)F)cc2C(F)(F)F)c2ccc(F)cc2)nn1",
    "viability, T/C": "102%"
  },
  {
    "compound": "C=CCn1c(=O)c2cnc(Nc3ccc(N4CCN(C)CC4)cc3)nc2n1-c1cccc(C(C)(C)O)n1 + COC1C(OC(N)=O)C(O)C(Oc2ccc3c(O)c(NC(=O)c4ccc(O)c(CC=C(C)C)c4)c(=O)oc3c2C)OC1(C)C",
    "viability, T/C": "91.3%"
  },
  {
    "compound": "COc1cc2cc(C(=O)CCC(=O)O)sc2cc1OC + Nc1ccc(C#CCN(C(=O)Cc2ncc(C(F)(F)F)cc2C(F)(F)F)c2ccc(F)cc2)nn1",
    "viability, T/C": "104%"
  },
  {
    "compound": "Nc1ccn(C2OC(CO)C(O)C2(F)F)c(=O)n1 (stereo not given) + Cc1cccc(N(C)C(=O)C2C(O)CCN2c2nc(C)cc(C(F)(F)F)c2C#N)c1",
    "viability, T/C": "7.56%"
  },
  {
    "compound": "COc1cc2cc(C(=O)CCC(=O)O)sc2cc1OC + COC1C(OC(N)=O)C(O)C(Oc2ccc3c(O)c(NC(=O)c4ccc(O)c(CC=C(C)C)c4)c(=O)oc3c2C)OC1(C)C",
    "viability, T/C": "96.1%"
  },
  {
    "compound": "CCc1cc2c(N3CCc4c(cc(Cn5ccnc5)cc4-c4cn(C)nc4C(F)(F)F)C3=O)cc(C)nc2c(OC)n1 + COC1C(OC(N)=O)C(O)C(Oc2ccc3c(O)c(NC(=O)c4ccc(O)c(CC=C(C)C)c4)c(=O)oc3c2C)OC1(C)C",
    "viability, T/C": "95%"
  }
]

viability, T/C lookup needed for C#Cc1c(F)ccc2cc(O)cc(-c3ncc4c(N5CC6CCC(C5)N6)nc(OCC56CCCN5CC(F)C6)nc4c3F)c12 (stereo not given) + Cc1cccc(N(C)C(=O)C2C(O)CCN2c2nc(C)cc(C(F)(F)F)c2C#N)c1 , thanks. 104%

Ok, now O=C(Nc1ccc(O)c(NS(=O)(=O)c2ccc(F)cc2)c1)c1ccc(-c2ccccc2)cc1 + Nc1ccc(C#CCN(C(=O)Cc2ncc(C(F)(F)F)cc2C(F)(F)F)c2ccc(F)cc2)nn1 97.4%

Ok, now O=C(c1cc(Cc2n[nH]c(=O)c3ccccc23)ccc1F)N1CCN(C(=O)C2CC2)CC1 + COC1C(OC(N)=O)C(O)C(Oc2ccc3c(O)c(NC(=O)c4ccc(O)c(CC=C(C)C)c4)c(=O)oc3c2C)OC1(C)C 87%

Ok, now CC(C)n1c(=O)n(C)c2cnc3cc(F)c(-c4ccc(OCCCN5CCCCC5)nc4)cc3c21 + Nc1ccc(C#CCN(C(=O)Cc2ncc(C(F)(F)F)cc2C(F)(F)F)c2ccc(F)cc2)nn1 98.1%

---

Test system: 922993-354-T-J3-PDC complex spheroid viability
Experiment: Anticancer human tumor 922993-354-T-J3-PDC cell line growth inhibition [POLQ];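 further: spheroids exposed to the agents for one week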;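 on viability, T/C: 100% = DMSO vehicle control wells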
Details: second compound 0.316 µM; first compound 10 µM; stronger effect = lower value
observable: viability, T/C (%)
The figure you give is taken to be in %; do not add the unit.

[
  {
    "compound": "CC1COCCN1c1cc(C2(S(C)(=N)=O)CC2)nc(-c2ccnc3[nH]ccc23)n1 (stereo not given) + Nc1ccc(C#CCN(C(=O)Cc2ncc(C(F)(F)F)cc2C(F)(F)F)c2ccc(F)cc2)nn1",
    "units_symbol": "%",
    "viability, T/C": 91.6
  },
  {
    "compound": "CCCS(=O)(=O)Nc1ccc(F)c(C(=O)c2c[nH]c3ncc(-c4ccc(Cl)cc4)cc23)c1F + Nc1ccc(C#CCN(C(=O)Cc2ncc(C(F)(F)F)cc2C(F)(F)F)c2ccc(F)cc2)nn1",
    "units_symbol": "%",
    "viability, T/C": 93.7
  },
  {
    "compound": "O=C(Nc1ccc(O)c(NS(=O)(=O)c2ccc(F)cc2)c1)c1ccc(-c2ccccc2)cc1 + COC1C(OC(N)=O)C(O)C(Oc2ccc3c(O)c(NC(=O)c4ccc(O)c(CC=C(C)C)c4)c(=O)oc3c2C)OC1(C)C",
    "units_symbol": "%",
    "viability, T/C": 101
  },
  {
    "compound": "O=C(c1cc(Cc2n[nH]c(=O)c3ccccc23)ccc1F)N1CCN(C(=O)C2CC2)CC1 + Cc1cccc(N(C)C(=O)C2C(O)CCN2c2nc(C)cc(C(F)(F)F)c2C#N)c1",
    "units_symbol": "%",
    "viability, T/C": 103
  },
  {
    "compound": "CCc1cc2c(N3CCc4c(cc(Cn5ccnc5)cc4-c4cn(C)nc4C(F)(F)F)C3=O)cc(C)nc2c(OC)n1 + Nc1ccc(C#CCN(C(=O)Cc2ncc(C(F)(F)F)cc2C(F)(F)F)c2ccc(F)cc2)nn1",
    "units_symbol": "%",
    "viability, T/C": 104
  }
]

GET /values?readout=viability, T/C&system=922993-354-T-J3-PDC complex spheroid viability&item= CCc1cc2c(N3CCc4c(cc(Cn5ccnc5)cc4-c4cn(C)nc4C(F)(F)F)C3=O)ccnc2c(OC)n1 + Nc1ccc(C#CCN(C(=O)Cc2ncc(C(F)(F)F)cc2C(F)(F)F)c2ccc(F)cc2)nn1 99.6

Ok, now C=CC(=O)N1CCN(c2nc(=O)n(-c3c(C)ccnc3C(C)C)c3nc(-c4c(O)cccc4F)c(F)cc23)C(C)C1 (stereo not given) + Cc1cccc(N(C)C(=O)C2C(O)CCN2c2nc(C)cc(C(F)(F)F)c2C#N)c1 96.8

Ok, now O=c1[nH]cc(F)c(=O)[nH]1 + COC1C(OC(N)=O)C(O)C(Oc2ccc3c(O)c(NC(=O)c4ccc(O)c(CC=C(C)C)c4)c(=O)oc3c2C)OC1(C)C 13.1

Ok, now CC1COCCN1c1cc(C2(O)CC3CCC(C2)O3)c2cnn(-c3ccn[nH]3)c2n1 (stereo not given) + Cc1cccc(N(C)C(=O)C2C(O)CCN2c2nc(C)cc(C(F)(F)F)c2C#N)c1 10.9

Ok, now COc1ccc([C@@H](O)c2cc(-c3ncnc4cc(N5CCOCC5)ccc34)c(F)cc2Cl)nn1 + COC1C(OC(N)=O)C(O)C(Oc2ccc3c(O)c(NC(=O)c4ccc(O)c(CC=C(C)C)c4)c(=O)oc3c2C)OC1(C)C 72.2

---

Test system: 922993-354-T-J3-PDC complex spheroid viability
Test: Anticancer human tumor 922993-354-T-J3-PDC cell line growth inhibition [POLQ];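 further: spheroids exposed to the agents for one week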
Conditions: curve of first compound; second compound 0.316 µM
Each entry below carries its reported IC50.

Solved entries:
[
  {
    "compound": "O=c1[nH]cc(F)c(=O)[nH]1 + Nc1ccc(C#CCN(C(=O)Cc2ncc(C(F)(F)F)cc2C(F)(F)F)c2ccc(F)cc2)nn1",
    "IC50": "5.66 µM"
  },
  {
    "compound": "COc1cc2cc(C(=O)CCC(=O)O)sc2cc1OC + Cc1cccc(N(C)C(=O)C2C(O)CCN2c2nc(C)cc(C(F)(F)F)c2C#N)c1",
    "IC50": "> 10 µM"
  },
  {
    "compound": "COc1cc(C2c3cc4c(cc3C(OC3OC5COC(C)OC5C(O)C3O)C3COC(=O)C23)OCO4)cc(OC)c1O (stereo not given) + COC1C(OC(N)=O)C(O)C(Oc2ccc3c(O)c(NC(=O)c4ccc(O)c(CC=C(C)C)c4)c(=O)oc3c2C)OC1(C)C",
    "IC50": "8.38 µM"
  },
  {
    "compound": "CC1COCCN1c1cc(C2(O)CC3CCC(C2)O3)c2cnn(-c3ccn[nH]3)c2n1 (stereo not given) + COC1C(OC(N)=O)C(O)C(Oc2ccc3c(O)c(NC(=O)c4ccc(O)c(CC=C(C)C)c4)c(=O)oc3c2C)OC1(C)C",
    "IC50": "0.361 µM"
  },
  {
    "compound": "COc1cccc2c1C(=O)c1c(O)c3c(c(O)c1C2=O)CC(O)(C(=O)CO)CC3OC1CC(N)C(O)C(C)O1 (stereo not given) + COC1C(OC(N)=O)C(O)C(Oc2ccc3c(O)c(NC(=O)c4ccc(O)c(CC=C(C)C)c4)c(=O)oc3c2C)OC1(C)C",
    "IC50": "1.08 µM"
  }
]

IC50 lookup needed for O=C(c1cc(Cc2n[nH]c(=O)c3ccccc23)ccc1F)N1CCN(C(=O)C2CC2)CC1 + Nc1ccc(C#CCN(C(=O)Cc2ncc(C(F)(F)F)cc2C(F)(F)F)c2ccc(F)cc2)nn1 , thanks. > 10 µM

Ok, now C#Cc1c(F)ccc2cc(O)cc(-c3ncc4c(N5CC6CCC(C5)N6)nc(OCC56CCCN5CC(F)C6)nc4c3F)c12 (stereo not given) + Cc1cccc(N(C)C(=O)C2C(O)CCN2c2nc(C)cc(C(F)(F)F)c2C#N)c1 > 10 µM

Ok, now CCc1cc2c(N3CCc4c(cc(Cn5ccnc5)cc4-c4cn(C)nc4C(F)(F)F)C3=O)cc(C)nc2c(OC)n1 + COC1C(OC(N)=O)C(O)C(Oc2ccc3c(O)c(NC(=O)c4ccc(O)c(CC=C(C)C)c4)c(=O)oc3c2C)OC1(C)C > 10 µM

Ok, now O=C(Nc1ccc(O)c(NS(=O)(=O)c2ccc(F)cc2)c1)c1ccc(-c2ccccc2)cc1 + Nc1ccc(C#CCN(C(=O)Cc2ncc(C(F)(F)F)cc2C(F)(F)F)c2ccc(F)cc2)nn1 > 10 µM

Ok, now C=CCn1c(=O)c2cnc(Nc3ccc(N4CCN(C)CC4)cc3)nc2n1-c1cccc(C(C)(C)O)n1 + COC1C(OC(N)=O)C(O)C(Oc2ccc3c(O)c(NC(=O)c4ccc(O)c(CC=C(C)C)c4)c(=O)oc3c2C)OC1(C)C > 1 µM
